subject_of_test: T1, human IL1RAP extracellular domain protein (GK002, HuIL1Racp-ECD-His6) (human, UniProt Q9NPH3 21-367)
T1 construct: also called His-tagged human IL-1RAP extracellular domain protein; HuIL1RAP-ECD-His6 (GK002)
T1 sequence: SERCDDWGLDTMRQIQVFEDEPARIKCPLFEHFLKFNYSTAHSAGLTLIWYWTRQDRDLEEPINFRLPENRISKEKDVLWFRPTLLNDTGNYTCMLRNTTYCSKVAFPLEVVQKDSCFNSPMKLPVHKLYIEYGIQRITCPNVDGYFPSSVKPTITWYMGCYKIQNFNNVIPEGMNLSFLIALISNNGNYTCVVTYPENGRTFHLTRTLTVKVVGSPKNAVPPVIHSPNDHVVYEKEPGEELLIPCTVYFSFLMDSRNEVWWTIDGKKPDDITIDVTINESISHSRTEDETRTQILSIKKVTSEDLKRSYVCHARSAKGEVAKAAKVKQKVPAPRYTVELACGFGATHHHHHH
procedure_details: SPR (Biacore T200), mAb captured by anti-Fc IgG, His-tagged human IL1RAP ECD as analyte
observable: koff (s⁻¹)

[
  {
    "binder": "murine mAb117 (antibody, V domains shown, Murine anti-human IL1RAP mAb) VH: QAYLQQSGAELVRPGASVKMSCKASGYTFTSYNMHWVKQSPRQGLEWVGVFYLGNGDTSYNEKFKGKATLTVDKSSSTAYMQLSSLTSEDSAVYFCARPGGYANWYFDVWGTGTTVTVSS VL: DIVMTQSQKFMSTSVGDWVSVTCKASQNVGTEVSWYQQKPGQSPNTLIYSASYRHSGVPDRFTGSGSGTEFTLTITNVQSEDLADYFCQQYNSFPLTFGAGTKLDLK",
    "result_value": "4.28e-05"
  },
  {
    "binder": "murine mAb067 (antibody, V domains shown, Murine anti-human IL1RAP mAb) VH: QVKLHQSGAELAKPGASVKMSCKASGYTFNSYWIHWVKQRPGQGLEWIGYNNPTSGYSEYNQKFTDKATLSADKSSSTAYMQLSSLTSEDSAVYYCVREYGDLFAYWGQGTLVTVSA VL: NIVMTQSPKSMSMSVGERVTLSCKASENVGYSVSWFQQKPDQSPKLLIYGASNRYTGVPDRFTGSGSATDFTLTISTVQAEDLADYHCGQIYIYPYTFGGGTKLEIK",
    "result_value": 0.000102
  },
  {
    "binder": "murine mAb048 (antibody, V domains shown, Murine anti-human IL1RAP mAb) VH: QVQLQQPGADLVKPGASVKLSCKAYGYTFFSYWMHWVRQRPGQGLEWIGMIHPNSGTTNNNEKFKSKATLTVDKSFSTAYMQLSSLTSEDSAVYYCARGYSNYDFDYWGQGTILTVSS VL: DIKMTQFPSSMYASLGERVTITCKASQDINTYLIWIQQKPGKSPKTLIYRANRLADGVPSRFSGSGSGQDSSLTISSLEHEDMGIYYCLQYDEFPYTFGGGTKLEIK",
    "result_value": "4.48e-05"
  },
  {
    "binder": "murine mAb001 (antibody, V domains shown, Murine anti-human IL1RAP mAb) VH: QVQLQQPGAELVRPGSSVKLSCKASGYTFTSYWMDWVKQRPGQGLEWIGNIYPSDSKTHYNQKFKDKATLTVDKSSSTAYMQLSSLTSEDSAVYYCARDYYGSIGMDYWGQGTSVTVSS VL: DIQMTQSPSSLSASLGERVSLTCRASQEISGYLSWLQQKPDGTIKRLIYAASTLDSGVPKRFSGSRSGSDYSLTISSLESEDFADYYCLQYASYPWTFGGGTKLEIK",
    "result_value": 0.000282
  },
  {
    "binder": "mAb063 (antibody, V domains shown, Murine anti-human IL1RAP mAb; also called murine mAb063) VH: EVQLQQSGPELVKPGASVKISCKASGYTFTDYYMNWVKQSHGKSLEWIGHINPNSGSTTYTEKFKDKATLTVDKSSSTAYMELRSLTSDDSAVYYCVRRIGKNWHCDVWGTGTTVTVSS VL: DIVLTQSPASLAVSLGQRATISCRASESVNFHGTHLMHWYQQKPGQAPKLLIYAASNLDSGVPARFSGSGSETDFTLNIHPVEEEDAATYFCQQSIEDPFTFGSGTYLEIK",
    "result_value": "2.12e-05"
  }
]
